Test system: NCI/ADR-RES ovarian
Test: NCI tumour cell line growth inhibition, 48 h
parameter: TGI

# molecule, endpoint.value
rows = [
    ("CS(=O)(=O)CCCn1c(=O)c(Oc2ccc(F)cc2F)cc2cnc(NC3CCOCC3)nc21", "> 25 µM"),
    ("CC1(C)OC(=C(C#N)C#N)C(C#N)=C1/C=C/c1ccncc1", "4.13 µM"),
    ("O=C(O)c1cccnc1", "> 100 µM"),
    ("COc1cccc2c1C(=O)c1c(O)c3c(c(O)c1C2=O)CC(O)(/C(C)=N/NC(=O)CCC(=O)N/N=C(\\C)C1(O)Cc2c(O)c4c(c(O)c2C(OC2CC(N)C(O)C(C)O2)C1)C(=O)c1c(OC)cccc1C4=O)CC3OC1CC(N)C(O)C(C)O1 (stereo not drawn)", "> 50 µM"),
    ("COc1ccc(/C=N/n2c(-c3ccccc3)n[nH]c2=O)cc1", "> 100 µM"),
    ("COc1ccc(N2C(=O)CS(=O)(=O)C2c2cccc(Oc3ccccc3)c2)cc1 (stereo not drawn)", "15.4 µM"),
    ("O=c1[nH]c(=O)n(C2CC(O)C(CO)O2)cc1CO (stereo not drawn)", "> 100 µM"),
    ("CC[C@]1(Cc2ccc(OC)c(OC)c2)[C@@H]2C[C@@H](C3OCCO3)ON2O[C@H](OC2CCCC2(c2ccccc2)c2ccccc2)[C@@H]1OC(C)=O (stereo partly drawn)", "53.9 µM"),
]

----------
Test system: RXF 393 renal
Experiment: NCI tumour cell line growth inhibition, 48 h

# compound, TGI
data = [
    ("COc1ccc(-c2cc(-c3ccccc3)c(C#N)c(=O)n2C2OC(CO)C(O)C(O)C2O)cc1 (stereo not given)", "> 100 µM"),
    ("O=C(CSc1nnc(-c2ccc(N=Cc3ccc(Cl)cc3)cc2)o1)Nc1ccc(Cl)cc1", "> 100 µM"),
    ("CC12CCC3C(CCC4=CC(O)CCC43C=O)C1(O)CCC2c1ccc(=O)oc1 (stereo not given)", "0.00801 µM"),
    ("CC(C)(C)NC(=O)N1N=C(c2ccccc2)C1c1ccccc1 (stereo not given)", "36.6 µM"),
    ("COc1cc(-c2nn(-c3cccc(NC(=O)Nc4ccc(Cl)c(Cl)c4)c3)cc2-c2ccncc2)ccc1Cl", "2.44 µM"),
    ("CCCn1c(N)c(C(=O)N/N=C(/C)c2cc3cccc(OC)c3o2)sc1=S", "> 100 µM"),
    ("Cc1ccsc1/C=N/Nc1ccc2ccccc2n1", "89.8 µM"),
    ("CC1(C)OC(=C(C#N)C#N)C(C#N)=C1/C=C/c1ccncc1", "5.07 µM"),
    ("CCN1CCN=c2c3cc(OC)ccc3n3cnc4ccc1c2c43", "1.05 µM"),
    ("Nc1nc2c(ncn2Cc2ccc(CO)cc2)c(=O)[nH]1", "> 100 µM"),
    ("O=c1cc2oc3cc(O)c(O)cc3c(-c3ccccc3O)c-2cc1O", "> 100 µM"),
    ("CCCCCCNC(=O)c1nc(-c2ccccc2)oc1Cc1ccc(OP(=O)(O)O)cc1", "31.3 µM"),
    ("COc1cccc2c1C(=O)c1c(O)c3c(c(O)c1C2=O)C[C@@](O)(C(=O)CO)C[C@@H]3OC1CC(N)C(OC)C(C)O1 (stereo not given in full)", "0.825 µM"),
    ("Oc1cc(O)c2c(c1)OC(c1ccc(O)c(O)c1)C(OC1(c3cc(O)c(O)c(O)c3)Oc3cc(O)cc(O)c3C(O)C1O)C2 (stereo not given)", "> 100 µM"),
    ("Cc1c(CNc2ccc(C(=O)NC(CC(=O)O)C(=O)O)cc2)ccc2nc(N)nc(N)c12 (stereo not given)", "> 1000 µM"),
    ("O=P(O)(Cc1ccccc1)c1ccccc1-c1ccccc1", "> 100 µM"),
    ("Cc1ccc(NC(=O)C2C(=O)N(c3ccc(C)c(C)c3)C(=O)C2N=N)cc1C (stereo not given)", "> 100 µM"),
    ("CCOC(=O)C1=C(N)Oc2ccc(Br)cc2C1C(C#N)C(=O)OCC (stereo not given)", "22 µM"),
    ("CC(C)C1=C(Cc2ccccc2)C(=O)O/C1=C\\c1cc(Cl)c(O)c(Cl)c1", "30.5 µM"),
    ("CC1=CC(=O)[C@@H](O)[C@]2(C)[C@H]3[C@@]4(O)OC[C@]35[C@H]([C@@H](C)[C@H]4O)[C@@H](O)C(=O)O[C@@H]5C[C@@H]12", "4.46 µM"),
]
